Listing of recorded inhibition by entry.
Experimental System: Group 3 secretory phospholipase A2 (Homo sapiens) (UniProt Q9NZ20)
Sequence (Q9NZ20 whole entry, looked up): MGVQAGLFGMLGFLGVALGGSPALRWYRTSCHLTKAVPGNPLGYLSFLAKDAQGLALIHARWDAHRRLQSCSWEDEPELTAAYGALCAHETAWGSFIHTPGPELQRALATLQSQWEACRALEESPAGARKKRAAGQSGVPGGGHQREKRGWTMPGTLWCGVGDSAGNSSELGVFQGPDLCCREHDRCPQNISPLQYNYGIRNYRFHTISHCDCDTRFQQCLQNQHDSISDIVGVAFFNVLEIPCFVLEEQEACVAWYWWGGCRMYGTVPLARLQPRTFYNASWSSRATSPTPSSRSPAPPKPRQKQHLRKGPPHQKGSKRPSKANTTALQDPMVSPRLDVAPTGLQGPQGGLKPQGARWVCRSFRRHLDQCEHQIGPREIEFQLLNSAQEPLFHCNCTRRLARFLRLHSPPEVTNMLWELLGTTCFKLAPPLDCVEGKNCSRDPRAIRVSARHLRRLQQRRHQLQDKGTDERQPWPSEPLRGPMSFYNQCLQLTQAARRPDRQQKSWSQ
Method Summary: human group III sPLA2 inhibitors, primary screen, biochemical, QFRET, BODIPY PC-A2 liposome substrate (AID 743126);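 note: 0% = median of test compound wells and 100% = no enzyme DMSO wells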
Test Context: QFRET BODIPY PC-A2 liposome hydrolysis, fluorescence; at 12.2 µM; hits give high values
Among all 370,000 compounds or so, about 2,100 (0.57%) were called active. The list comes from a sample in which actives are over-represented; it also holds close analogues and randomly drawn compounds.
Readout Kind: inhibition (%)

[
  {
    "Molecular String": "CCc1c(Nc2ccccc2C)nc(N)[nH]c1=O",
    "Experimental System": "Group 3 secretory phospholipase A2 (Homo sapiens) (UniProt Q9NZ20)",
    "Value Measured": 8.22
  },
  {
    "Molecular String": "CN(C)S(=O)(=O)c1cccc(NC(=S)N/N=C/C(=O)c2ccccc2)c1",
    "Experimental System": "Group 3 secretory phospholipase A2 (Homo sapiens) (UniProt Q9NZ20)",
    "Value Measured": 24
  },
  {
    "Molecular String": "Clc1ccc(-n2c(COc3ccccc3)nnc2SCc2nc3ccccc3[nH]2)cc1",
    "Experimental System": "Group 3 secretory phospholipase A2 (Homo sapiens) (UniProt Q9NZ20)",
    "Value Measured": -11.3
  },
  {
    "Molecular String": "CN(C)S(=O)(=O)c1cccc(NC(=O)COC(=O)/C=C/c2cccs2)c1",
    "Experimental System": "Group 3 secretory phospholipase A2 (Homo sapiens) (UniProt Q9NZ20)",
    "Value Measured": -11.5
  },
  {
    "Molecular String": "CN(C)S(=O)(=O)c1cccc(C(=O)N/N=C\\c2ccco2)c1",
    "Experimental System": "Group 3 secretory phospholipase A2 (Homo sapiens) (UniProt Q9NZ20)",
    "Value Measured": 1.45
  },
  {
    "Molecular String": "N#CCC[C@H]1CC[C@]2(CCCN(Cc3ccc(Cl)cc3)C2)O1",
    "Experimental System": "Group 3 secretory phospholipase A2 (Homo sapiens) (UniProt Q9NZ20)",
    "Value Measured": 5.78
  }
]

* * *

Experimental System: Group 3 secretory phospholipase A2 (Homo sapiens) (UniProt Q9NZ20)
Method Summary: human group III sPLA2 inhibitors, primary screen, biochemical, QFRET, BODIPY PC-A2 liposome substrate (AID 743126);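 note: 0% = median of test compound wells and 100% = no enzyme DMSO wells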
Test Context: QFRET BODIPY PC-A2 liposome hydrolysis, fluorescence; at 12.2 µM; hits give high values
In all, about 370,000 compounds went through this assay and about 2,100 (0.57%) were called active. The sample as a whole holds a higher share of actives than the screen did.
Listing of recorded inhibition by entry.
Readout Kind: inhibition (%)

[
  {
    "Compound": "CC(c1c[nH]c2ccccc12)c1c(-c2ccccc2)n(C)c2ccccc12 (stereo unspecified)",
    "Value Measured": -21.1
  },
  {
    "Compound": "Cc1cc(NCCc2c[nH]c3ccccc23)ccc1Oc1cccnc1",
    "Value Measured": 24.1
  },
  {
    "Compound": "NC(Cc1ccc(F)cc1)c1csc(Nc2nncc3ccccc23)n1 (stereo unspecified)",
    "Value Measured": 9.76
  },
  {
    "Compound": "COc1ccc(C(=O)CSc2nnc(-c3cnccn3)n2-c2ccc(C)cc2)cc1",
    "Value Measured": -19.7
  },
  {
    "Compound": "CCNC(=S)Nc1ccc(OC(F)(F)F)cc1",
    "Value Measured": 20.4
  },
  {
    "Compound": "O=C(CCc1c[nH]c2ccccc12)NCCOc1ccccc1",
    "Value Measured": -37
  },
  {
    "Compound": "Brc1ccccc1C1N=C(c2ccccc2)NO1 (stereo unspecified)",
    "Value Measured": 9.79
  },
  {
    "Compound": "Nc1[nH]c(/C=C2/CCCCC2n2[nH]c(=O)n(-c3ccccc3)c2=O)c(Cc2ccccc2)[n+]1Cc1ccccc1 (stereo unspecified)",
    "Value Measured": -5.57
  },
  {
    "Compound": "O=C(CSc1nnc(-c2cccc(Cl)c2)n1Cc1ccco1)Nc1ccc(OCc2ccccc2)cc1",
    "Value Measured": -12.1
  },
  {
    "Compound": "Cc1c(C(=O)N/N=C/c2ccccc2)[nH]c2c([N+](=O)[O-])cccc12",
    "Value Measured": 21.8
  },
  {
    "Compound": "Cc1ccc(OCc2nnc(SC/C=C/c3ccccc3)n2Cc2ccco2)cc1",
    "Value Measured": -14.9
  },
  {
    "Compound": "COc1cc2c(cc1OC)C(c1ccccc1Br)NC(=O)C2 (stereo unspecified)",
    "Value Measured": 13.2
  },
  {
    "Compound": "O=C(N/N=C/c1cc(Cl)cc([N+](=O)[O-])c1O)C(O)(c1ccccc1)c1ccccc1",
    "Value Measured": 21.2
  },
  {
    "Compound": "Cc1c(Cl)cccc1NC(=S)NCC(O)c1ccccc1 (stereo unspecified)",
    "Value Measured": 8.54
  },
  {
    "Compound": "Cc1ccc(-c2nc(C3CCCN(S(=O)(=O)c4ccc(Br)s4)C3)no2)cc1 (stereo unspecified)",
    "Value Measured": 7.46
  },
  {
    "Compound": "O=[N+]([O-])c1cc(Cl)cc(/C=N/NC(=S)Nc2cc(S(=O)(=O)N3CCOCC3)ccc2Cl)c1O",
    "Value Measured": 16.3
  },
  {
    "Compound": "Cc1c(Cl)cccc1NC(=S)NCc1ccc2c(c1)OCO2",
    "Value Measured": 19.5
  },
  {
    "Compound": "Cc1ccc2[nH]c(C(=O)O)c(NC(=O)c3ccccc3[N+](=O)[O-])c2c1",
    "Value Measured": -10.3
  },
  {
    "Compound": "COC(=O)C[C@@H]1CC[C@@H]2[C@@H](COc3ccc(NC(=O)Nc4ccc(F)c(F)c4)cc3C(=O)N2C)O1",
    "Value Measured": -13.5
  },
  {
    "Compound": "CN(CC(=O)Nc1ccc(OC(F)(F)F)cc1)C(=O)C1CCC1",
    "Value Measured": 14.1
  },
  {
    "Compound": "COc1cccc(CNCCc2c[nH]c3ccccc23)c1OCc1ccccc1F",
    "Value Measured": -6.09
  }
]
